# protocol_summary: Photostability test, visible light (1.2 Mlux·hr) exposure
# measurement_conditions: Table 11, initial
Where a name gives a salt, the structure may show the parent alone.
Give Initial (%) Degradant for every item shown.
Numbers only here, please. The scale is %.

[Q] Fill in: Initial (%) Degradant of Cc1nc2c(O[C@H]3CCOc4cc(F)cc(F)c43)cc(C(=O)N(C)C)cc2[nH]1 [Methanesulfonate Salt (Amorphous Form)] is ___
[A] 0.284

[Q] Would you mind telling me what Initial (%) Degradant value was observed for Cc1nc2c(O[C@H]3CCOc4cc(F)cc(F)c43)cc(C(=O)N(C)C)cc2[nH]1 [Malate Salt] ?
[A] 0.004

[Q] Sample Cc1nc2c(O[C@H]3CCOc4cc(F)cc(F)c43)cc(C(=O)N(C)C)cc2[nH]1 [Methanesulfonate Salt (Crystalline Form)] — what was its Initial (%) Degradant?
[A] 0.122

[Q] Please give the measured Initial (%) Degradant for this molecule: Cc1nc2c(O[C@H]3CCOc4cc(F)cc(F)c43)cc(C(=O)N(C)C)cc2[nH]1 [Phosphate Salt]
[A] 0.085

[Q] // query Initial (%) Degradant value for entry Cc1nc2c(O[C@H]3CCOc4cc(F)cc(F)c43)cc(C(=O)N(C)C)cc2[nH]1 [Maleate Salt]
[A] 0.027

[Q] Given Cc1nc2c(O[C@H]3CCOc4cc(F)cc(F)c43)cc(C(=O)N(C)C)cc2[nH]1 [Hemisalicylate Salt] , state its recorded Initial (%) Degradant.
[A] 0.001

[Q] Sample Cc1nc2c(O[C@H]3CCOc4cc(F)cc(F)c43)cc(C(=O)N(C)C)cc2[nH]1 [Hydrobromide Salt] — what was its Initial (%) Degradant?
[A] 1.972

[Q] Query (molecule): Cc1nc2c(O[C@H]3CCOc4cc(F)cc(F)c43)cc(C(=O)N(C)C)cc2[nH]1 [Sulfate Salt] ; field requested: Initial (%) Degradant
[A] 0.339

[Q] # Initial (%) Degradant lookup, item Cc1nc2c(O[C@H]3CCOc4cc(F)cc(F)c43)cc(C(=O)N(C)C)cc2[nH]1 [Pidolate Salt]
[A] 0.001
